experiment_notes: viability of HCT116 without oncogenic beta-catenin – human colon tumor cells, pilot screen (AID 823);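 also: 0% = wells killed by 20 µM Hyamine and 100% = untreated DMSO cell wells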
condition_summary: HCT116 beta-catenin knockout viability, CellTiter-Glo, 60 h; at 10 µM; stronger effect = lower value
Inconclusive results are not listed.
With a cut-off of 90%, any viability strictly below it is called true; any viability meeting it or above is called false.

CC(Sc1n[nH]c(=O)[nH]c1=O)C(=O)OCc1ccccc1 (stereo not given); false
CCOc1ccc(-c2nnc3n2N=C(c2ccc(OC)cc2)CS3)cc1; true
N#Cc1nc(-c2ccc(F)cc2)oc1NCc1ccccc1; false
CC1CCc2nc3ccc(S(=O)(=O)N4CCC(C(=O)NC5CCCC5)CC4)cc3c(C(=O)O)c2C1 (stereo not given); false
COc1ccc(NC(=O)c2cc(C3CC3)on2)c(OC)c1; false

---

experiment_notes: viability of HCT116 without oncogenic beta-catenin – human colon tumor cells, pilot screen (AID 823);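 also: 0% = wells killed by 20 µM Hyamine and 100% = untreated DMSO cell wells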
condition_summary: HCT116 beta-catenin knockout viability, CellTiter-Glo, 60 h; at 10 µM; stronger effect = lower value
Inconclusive results are not listed. Calls of active or inactive are those of the source.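 How the source made its calls: active means cell viability at or below a set limit in both duplicate runs, the limit being the all-compound median minus 4 SD (cut at about 23% in these data, passing the limit was not always enough); inconclusive means no clear call, values can overlap the other calls; inactive means the rest.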
observed_property: viability

CCOC(=O)c1ccc(NC(=O)CC2SC(=NC)N(C)C2=O)cc1 (centres undefined); 101% (inactive)
CCOC(=O)COn1c(=O)c(=O)n(O)c2ccccc21; 87.2% (inactive)
CCc1ccc(C2CC(c3cccc(Cl)c3)n3nc(N)nc3N2)cc1 (centres undefined); 71.5% (inactive)
CC(CCc1ccco1)NC(=O)c1cc2c(-c3ccccc3F)nn(C)c2s1 (centres undefined); 83.3% (inactive)
O=C(NCCC1=CCCCC1)C1CCN(S(=O)(=O)c2cccc3cccnc23)CC1; 93.3% (inactive)
Clc1cc(Br)ccc1OCCOCCN1CCOCC1; 93.5% (inactive)
COc1ccccc1N1CCN(c2nc(N)c(C#N)c(CC#N)c2C#N)CC1; 96.7% (inactive)
COc1ccc(OC)c(C2C(C(N)=O)=C(C)Nc3nc(CCCO)nn32)c1 (centres undefined); 97.3% (inactive)
O=C(c1cnc2n(c1=O)CCS2)N(C1CCCCC1)C1CCCCC1; 101% (inactive)

---

experiment_notes: viability of PTEN-null HCT116 cells – cell-based, HCT116 clonal line, CellTiter-Glo, pilot screen (AID 824);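 also: 0% = 20 µM Hyamine control and 100% = vehicle cell control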
condition_summary: HCT116 PTEN-deleted viability, 60 h, at 10 µM, stronger effect = lower value
Results filed as inconclusive are left out.
observed_property: viability (%)

CCCCNC(=O)c1cc2c(-c3ccc(Cl)cc3)nn(C)c2s1; 88.7
CCC1CCCCN1CCCNC(=O)CC1Oc2ccc(C)cc2NC1=O (centres undefined); 91.1
COCCCNC(=O)c1ccc(CS(=O)(=O)c2ccc(OC)cc2)o1; 91
CSc1ccc(C2NC(=O)c3c(sc4c3CCN(C)C4)N2)cc1 (centres undefined); 92.5

---

Recorded viability by entry
experiment_notes: Her2 expression decrease, cell viability multiplex – SKBR3 breast tumor cells, AlphaScreen, ATP viability, primary screen (AID 461);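 also: percent of carrier control wells set as 100% viability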
condition_summary: SKBR3 Her2 protein level, 18-24 h, measured here: SKBR3 viability, ATP luminescence, at 10 µM
observed_property: viability (%)

O=C(NCCCN1CCOCC1)c1ccc(CS(=O)(=O)c2c(Cl)cccc2Cl)o1; 90.5
CCOC(=O)N1CCN(C(=O)CSc2nnc(COc3ccccc3)o2)CC1; 92.5
COc1cccc(-c2nc3n(n2)C(c2ccccc2Cl)C(C(N)=O)=C(C)N3)c1 (stereo not drawn); 91
